pIC50: −log10 of the molar value. Non-standard residues stand in square brackets, D forms with d. Residues, ends and D or L forms follow the SMILES beside them. *: point of attachment. Lys(Me3) = C[N+](C)(C)CCCC[C@H](N)C(=O)O; Ala(cPr) = N[C@@H](CC1CC1)C(=O)O; Tos = Cc1ccc(S(=O)(=O)*)cc1; PhAc = O=C(Cc1ccccc1)*
Recorded below: pIC50, system Chromobox protein homolog 7 (Homo sapiens).
Measurement Name: pIC50

[[record]]
compound = "CC(=O)N[C@@H](Cc1ccccc1)C(=O)N[C@@H](C)C(=O)N[C@@H](CC(C)C)C(=O)N[C@@H](CCCC[N+](C)(C)C)C(=O)N[C@H](CO)C(=O)O"
data_value = 4.10

[[record]]
compound = "CC(C)C[C@H](NC(=O)[C@H](C)NC(=O)CNC(=O)Cc1ccccc1)C(=O)N[C@@H](CCCC[N+](C)(C)C)C(=O)N[C@@H](CO)C(N)=O (PhAc-GAL[Lys(Me3)]S-NH2)"
data_value = 4.00


1 = Cc1ccc(S(=O)(=O)NCC(=O)N[C@@H](C)C(=O)N[C@@H](CC(C)C)C(=O)N[C@@H](CCCC[N+](C)(C)C)C(=O)N[C@@H](CO)C(N)=O)cc1 (Tos-GAL[Lys(Me3)]S-NH2)
2 = CC(=O)N[C@@H](Cc1ccccc1)C(=O)N[C@@H](C)C(=O)N[C@@H](CC1CC1)C(=O)N[C@@H](CCCC[N+](C)(C)C)C(=O)N[C@@H](CO)C(N)=O (Ac-FA[Ala(cPr)][Lys(Me3)]S-NH2)
Parameter check: reported pIC50 is higher for which label, 1 or 2 ? Respond using the label that marks the chosen record.
2

* * *

In what follows, each item is paired with its IC50 for Chromobox protein homolog 7 (Homo sapiens).
Non-standard residues stand in square brackets, D forms with d. Residues, ends and D or L forms follow the SMILES beside them. *: point of attachment. Lys(Me3) = C[N+](C)(C)CCCC[C@H](N)C(=O)O; Tos = Cc1ccc(S(=O)(=O)*)cc1; X9 = O[C@H]1CCCC[C@@H]1N*; X4 = CC(C)C(CO)N*

Below are worked cases with known answers.
[[record]]
molecule = "CC(=O)N[C@@H](Cc1ccccc1)C(=O)N[C@@H](C)C(=O)N[C@@H](CC(C)C)C(=O)N[C@@H](CCCC[N+](C)(C)C)C(=O)N[C@H]1CCCC[C@@H]1O (Ac-FAL[Lys(Me3)]-X9)"
data_value = "> 250 µM"

[[record]]
molecule = "CC(=O)N[C@@H](Cc1ccccc1)C(=O)N[C@@H](C)C(=O)N[C@@H](CC(C)C)C(=O)N[C@@H](CCCC[N+](C)(C)C)C(=O)NC(CO)C(C)C (stereo partly drawn) (Ac-FAL[Lys(Me3)]-X4)"
data_value = "> 250 µM"


Now, please, on to the next molecule.
Record Cc1ccc(S(=O)(=O)N[C@@H](Cc2ccccc2)C(=O)N[C@@H](C)C(=O)N[C@@H](CC(C)C)C(=O)N[C@@H](CCCC[N+](C)(C)C)C(=O)N[C@@H](CO)C(N)=O)cc1 (Tos-FAL[Lys(Me3)]S-NH2) ; system Chromobox protein homolog 7 (Homo sapiens); IC50 = > 250 µM
